# experiment description: Pharmacokinetics following a single oral dose in male Sprague-Dawley rats
# Format: in vivo
# settings: rat, single po dose (nominal 10 mg/kg; actual dose per row in column Dose po), 10% DMSO/10% cremophor/80% SWFI, plasma
Field: Tmax. Provide a value for each of the compounds that follow.
Give bare numbers, in min.

compound	unit abbreviation	Tmax
COCc1nn(Cc2ccc(Cn3ccccc3=O)cc2)cc1C(=O)NCc1nccc(OC)c1C [Example 22]	min	60
COc1ccnc(CNC(=O)c2cn(Cc3ccc(Cn4ccccc4=O)cc3)nc2C(F)(F)F)c1F [Example 6]	min	30
COCc1nn(Cc2ccc(N3CCCC3)nc2)cc1C(=O)NCc1c(-n2cnnn2)ccc(OC)c1F [Example 77]	min	90

Go through the list and state Tmax for each entry.
1. COCc1nn(Cc2cnc(N3CCCC3)nc2)cc1C(=O)NCc1c(-n2cnnn2)ccc(OC)c1F [Example 79]
2. COCc1nn(Cc2ccc(Cn3cc(F)ccc3=O)cc2)cc1C(=O)NCc1nccc(OC)c1F [Example 30]
3. COCc1nn(Cc2ccc(Cn3ccccc3=O)cc2)cc1C(=O)NCc1c(-n2cnnn2)ccc(OC)c1F [Example 39]
4. COCc1nn(Cc2cnc(N3CCC(F)(F)C3)nc2)cc1C(=O)NCc1c(-n2cnnn2)ccc(OC)c1F [Example 86]

**A:**
45
38
30
30

* * *

# assayed system: Human plasma kallikrein (Homo sapiens (Human), UniProt P03952)
# Sequence (P03952 391-638): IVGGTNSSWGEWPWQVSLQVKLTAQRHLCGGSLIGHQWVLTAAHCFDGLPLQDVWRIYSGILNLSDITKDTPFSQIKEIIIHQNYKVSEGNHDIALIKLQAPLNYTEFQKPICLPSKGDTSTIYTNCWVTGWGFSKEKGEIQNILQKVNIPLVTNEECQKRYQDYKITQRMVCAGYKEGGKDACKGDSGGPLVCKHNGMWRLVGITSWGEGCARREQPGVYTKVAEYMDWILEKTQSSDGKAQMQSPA
# Sequence (P03952 20-390): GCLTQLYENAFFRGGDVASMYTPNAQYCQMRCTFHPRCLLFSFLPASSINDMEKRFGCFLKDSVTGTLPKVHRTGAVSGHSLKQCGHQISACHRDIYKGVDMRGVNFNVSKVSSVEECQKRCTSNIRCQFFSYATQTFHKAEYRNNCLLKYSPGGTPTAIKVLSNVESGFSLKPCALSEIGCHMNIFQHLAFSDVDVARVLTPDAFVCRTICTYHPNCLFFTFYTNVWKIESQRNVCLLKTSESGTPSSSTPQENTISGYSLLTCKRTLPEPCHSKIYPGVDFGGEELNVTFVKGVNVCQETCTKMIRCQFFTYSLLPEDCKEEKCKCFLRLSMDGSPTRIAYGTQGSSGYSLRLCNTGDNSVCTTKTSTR
# experiment description: Determination of the IC50 for plasma kallikrein
# settings: 25° C., substrate H-DPro-Phe-Arg-AFC; read-out: IC50 (human PKal)
endpoint name: IC50 (nM)
Numbers only, in nM.

Below: 4 compounds and their reported IC50.
compound	IC50 [nM]
COCc1nn(Cc2ccc(Cn3ccccc3=O)nc2)cc1C(=O)NCc1c(C#N)ccc(OC)c1F [Example 52]	6.4
COCc1nn(Cc2ccc(Cn3ccccc3=O)cc2)cc1C(=O)NCc1cc(F)ccc1-n1cnnn1 [Example 49]	15.9
COc1ccc(-n2cnnn2)c(CNC(=O)c2cnn(Cc3cnc(N4CCCC4)nc3)c2)c1F [Reference Example K, reference compound]	2
COCc1nn(Cc2cnc(N3CCC(F)(F)C3)nc2)cc1C(=O)NCc1cc(OC)ccc1-n1cnnn1 [Example 88]	8.3

**Q:** I would be grateful if you could share the reported IC50 for COc1ccc(C#N)c(CNC(=O)c2cn(Cc3ccc(Cn4ccccc4=O)cc3)nc2N(C)C)c1F [Example 44] .
**A:** 8.8

* * *

# assayed system: Human plasma kallikrein (Homo sapiens (Human))
# experiment description: Determination of the IC50 for plasma kallikrein
# settings: 25° C., substrate H-DPro-Phe-Arg-AFC; read-out: IC50 (human PKal)
endpoint name: pIC50
Answers are plain numbers, as −log10 of the molar value.

Below: 5 compounds and their reported pIC50.
compound	recorded number
COCc1nn(Cc2ccc(Cn3ccccc3=O)cc2)cc1C(=O)NCc1ncccc1C#N [Example 13]	5.53
COCc1nn(Cc2ccc(Cn3cc(C)cn3)cc2)cc1C(=O)NCc1c(-n2cnnn2)ccc(OC)c1F [Example 60]	9.05
COCc1nn(Cc2ccc(N3CCC(F)(F)C3)nc2)cc1C(=O)NCc1c(-n2cnnn2)ccc(OC)c1F [Example 87]	9.10
COCc1nn(Cc2ccc(Cn3cc(F)ccc3=O)cc2)cc1C(=O)NCc1nccc(OC)c1F [Example 30]	8.17
COCc1nn(Cc2ccc(Cn3cccn3)cc2)cc1C(=O)NCc1cccc(Cl)c1F [Reference Example J, reference compound]	5.54

Go through the list and state pIC50 for each entry.
1. COCc1nn(Cc2ccc(Cn3ccccc3=O)cc2)cc1C(=O)NCc1cc(OC)ccc1C#N [Example 37]
2. COCc1nn(Cc2ccc(Cn3ccccc3=O)cc2)cc1C(=O)NCc1ncc(C)c(OC)c1C [Example 11]
3. COc1ccc(-n2cnnn2)c(CNC(=O)c2cn(Cc3ccc(N4CCCC4)nc3)nc2C(F)(F)F)c1F [Example 83]
4. COCc1nn(Cc2ccc(Cn3ccccc3=O)cc2)cc1C(=O)NCc1nccc(C)c1Cl [Example 29]
5. COCc1nn(Cc2ccc(Cn3ccccc3=O)cc2)cc1C(=O)NCc1ncc(Cl)cc1F [Example 17]
6. COCc1nn(Cc2ccc(Cn3cc(F)ccc3=O)cc2)cc1C(=O)NCc1c(C#N)ccc(OC)c1F [Example 53]
7. COCc1nn(Cc2ccc(Cn3cc(C)cn3)cc2)cc1C(=O)NCc1nccc(OC)c1F [Example 1]

**A:**
[6.55, 7.46, 9.52, 6.66, 6.84, 8.77, 7.58]
